run.description: DRUGMATRIX: Sigma2 radioligand binding (ligand: [3H] Ifenprodil)
Assay type: cell membranes, Rattus norvegicus, Wistar, Brain, Membrane
experimental.parameters: Not Active = under 50% inhibition at 10 µM
Where a SMILES comes first, the peptide text is derived from it. Bridges are numbered along the chain shown (N, C = ends). [ ]: non-standard residue; d: D form. The star is where a group is joined. Threoninol(2S,3R) = C[C@@H](O)[C@H](CO)N*
property.label: IC50

See these solved cases before continuing.
{"columns": ["compound", "observed"],
 "data": [
  ["C/C=C/C[C@@H](C)[C@@H](O)[C@H]1C(=O)N[C@@H](CC)C(=O)N(C)CC(=O)N(C)[C@@H](CC(C)C)C(=O)N[C@@H](C(C)C)C(=O)N(C)[C@@H](CC(C)C)C(=O)N[C@@H](C)C(=O)N[C@H](C)C(=O)N(C)[C@@H](CC(C)C)C(=O)N(C)[C@@H](CC(C)C)C(=O)N(C)[C@@H](C(C)C)C(=O)N1C [CYCLOSPORINE]", "Not Active"],
  ["N[C@H](CSC(=S)NCc1ccccc1)C(=O)O", "Not Active"],
  ["O=S(=O)([O-])CCS.[Na+] [MESNA]", "Not Active"],
  ["NC(=O)c1cnccn1 [PYRAZINAMIDE]", "Not Active"],
  ["CCN(CC)CCOC(=O)c1ccc(N)cc1 [PROCAINE]", "Not Active"],
  ["CCN[C@@H]1C[C@H](N)[C@@H](O[C@H]2OC(CN)=CC[C@H]2N)[C@H](O)[C@H]1O[C@H]1OC[C@](C)(O)[C@H](NC)[C@H]1O [NETILMICIN]", "Not Active"]
]}

# input for lookup
Returns the measured IC50 for the input compound. Input: C[C@@H](O)[C@H](CO)NC(=O)[C@@H]1CSSC[C@H](NC(=O)[C@H](N)Cc2ccccc2)C(=O)N[C@@H](Cc2ccccc2)C(=O)N[C@H](Cc2c[nH]c3ccccc23)C(=O)N[C@@H](CCCCN)C(=O)N[C@@H]([C@@H](C)O)C(=O)N1 (H-[dF]CF[dW]KTC-{Threoninol(2S,3R)}; disulfide 2-7)
Not Active

---

run.description: DRUGMATRIX: Sodium/nucleoside co-transporter radioligand binding (ligand: nitrobenzylthioinosine)
Type: cell membranes, Cavia porcellus, Dunkin-Hartley, Cerebral cortex, Membrane
experimental.parameters: Not Active = under 50% inhibition at 10 µM
property.label: IC50

See these solved cases before continuing.
{"columns": ["molecule", "IC50"],
 "data": [
  ["CN1C(=O)COc2c(C(=O)NC3CN4CCC3CC4)cc(Cl)cc21 (stereo not drawn)", "Not Active"],
  ["CCN[C@@H]1C[C@H](N)[C@@H](O[C@H]2OC(CN)=CC[C@H]2N)[C@H](O)[C@H]1O[C@H]1OC[C@](C)(O)[C@H](NC)[C@H]1O", "Not Active"],
  ["O=c1ccc2ccccc2o1", "Not Active"],
  ["Cc1cc(C)nc(NS(=O)(=O)c2ccc(N)cc2)n1", "Not Active"]
]}

Returns the measured IC50 for the input molecule. Input: [H]/N=C(/N)N[C@H]1[C@H](O)[C@@H](O)[C@H](O[C@@H]2O[C@@H](C)[C@](O)(C=O)[C@H]2O[C@@H]2O[C@@H](CO)[C@H](O)[C@@H](O)[C@@H]2NC)[C@@H](N/C(N)=N\[H])[C@@H]1O
Not Active

Returns the measured IC50 for the input molecule. Input: CC(=O)Nc1ccc(O)cc1
Not Active

Returns the measured IC50 for the input molecule. Input: Cc1cccc(Nc2ccncc2S(=O)(=O)NC(=O)NC(C)C)c1 [TORSEMIDE]
Not Active

Returns the measured IC50 for the input molecule. Input: CN(C)/N=N/c1[nH]cnc1C(N)=O
Not Active
